test system: Escherichia coli IAI1; assay: growth AUC relative to DMSO control (median of replicates) (fraction); higher = more growth (less inhibition), active = hit call of the paper; conditions: 20 µM; 24 h
Assign class by growth AUC: not lower than 1 means YES; lower than 1 means NO.

Worked examples follow.
Check this molecule for growth AUC at or above 1: CCCC(Cn1cncn1)c1ccc(Cl)cc1Cl (stereo unspecified) YES

Check this molecule for growth AUC at or above 1: CNC(=O)CSP(=O)(OC)OC YES

Check this molecule for growth AUC at or above 1: O=C(Nc1ccccc1)Nc1cnns1 NO

Check this molecule for growth AUC at or above 1: CCOC(=O)C(C)OC(=O)c1cc(Oc2ccc(C(F)(F)F)cc2Cl)ccc1[N+](=O)[O-] (stereo unspecified) NO

Please examine the following record next.
Check this molecule for growth AUC at or above 1: O=c1oc2ccccc2c(O)c1C(CC(O)c1ccc(-c2ccc(Br)cc2)cc1)c1ccccc1 (stereo unspecified) NO

* * *

system: Akkermansia muciniphila; assay: growth AUC relative to DMSO control (median of replicates) (fraction); higher = more growth (less inhibition), active = hit call of the paper; settings: 20 µM; 24 h
Assign class by growth AUC: not lower than 1 means true; lower than 1 means false.

Check this compound for growth AUC at or above 1: CC(Oc1ccc(Oc2ccc(C(F)(F)F)cn2)cc1)C(=O)O (stereo not given) true

Check this compound for growth AUC at or above 1: CCOC(=O)c1ccccc1S(=O)(=O)NC(=O)Nc1nc(Cl)cc(OC)n1 true

Check this compound for growth AUC at or above 1: CCSCc1ccccc1OC(=O)NC false

Check this compound for growth AUC at or above 1: Oc1ccc(-c2ccccc2)cc1 false

Check this compound for growth AUC at or above 1: N#Cc1c[nH]cc1-c1cccc(Cl)c1Cl false

Please examine the following record next.
Check this compound for growth AUC at or above 1: Cc1cc(Cl)ccc1OCC(=O)O.O.[Na] true

* * *

system: Lactobacillus gasseri; assay: growth AUC relative to DMSO control (median of replicates) (fraction); higher = more growth (less inhibition), active = hit call of the paper; settings: 20 µM; 24 h
Measurement Label: growth AUC
In your answer, state the number alone without any accompanying words.

Read the entry ClC1=C(Cl)C2(Cl)[C@H]3[C@@H]4O[C@@H]4[C@H](Cl)[C@H]3C1(Cl)C2(Cl)Cl (single isomer, unassigned; isomer b) and write its reported growth AUC. 0.95

New cases:
Read the entry O=C(O)c1nc(Cl)ccc1Cl and write its reported growth AUC. 1.09

Read the entry COP(=S)(OC)Oc1ccc([N+](=O)[O-])c(C)c1 and write its reported growth AUC. 1.01

Read the entry CCOP(=S)(OCC)SCSC(C)(C)C and write its reported growth AUC. 0.909

Read the entry O=C(Nc1ccccc1)Nc1ccnc(Cl)c1 and write its reported growth AUC. 0.858

Read the entry Cc1cc(OC(=O)N(C)C)nn1C(=O)N(C)C and write its reported growth AUC. 0.992

Read the entry COP(=O)(OC)O/C(=C\Cl)c1ccc(Cl)cc1Cl and write its reported growth AUC. 0.97

Read the entry COP(=S)(OC)Oc1cc(Cl)c(I)cc1Cl and write its reported growth AUC. 0.872

Read the entry ClC1=C(Cl)[C@]2(Cl)[C@@H]3[C@@H]4C[C@@H]([C@H]5O[C@@H]45)[C@@H]3[C@@]1(Cl)C2(Cl)Cl and write its reported growth AUC. 0.999

Read the entry CCNc1nc(Cl)nc(NC(C)C)n1 and write its reported growth AUC. 0.976

Read the entry O=[N+]([O-])NC1=NCOCN1Cc1cnc(Cl)s1 and write its reported growth AUC. 0.809

Read the entry CCC(C)c1cc([N+](=O)[O-])cc([N+](=O)[O-])c1O (stereo not given) and write its reported growth AUC. 0.959

Read the entry CN(C)C(=O)Nc1cccc(C(F)(F)F)c1 and write its reported growth AUC. 1.05

Read the entry CCN(CC)c1nc(C)cc(OP(=S)(OC)OC)n1 and write its reported growth AUC. 0.984

Read the entry CCC(C)(CC)c1cc(NC(=O)c2c(OC)cccc2OC)on1 and write its reported growth AUC. 0.932

Read the entry Cc1cccc2sc3nncn3c12 and write its reported growth AUC. 1.05

Read the entry CNC(=O)Oc1cc(C)c(S(C)(=O)=O)c(C)c1 and write its reported growth AUC. 0.999

Read the entry NC(=O)/N=C1/SCCN1Cc1ccc(Cl)nc1 and write its reported growth AUC. 0.995

Read the entry CCOc1cc(OP(=S)(OC)OC)nc(CC)n1 and write its reported growth AUC. 0.996

* * *

test system: Bacteroides caccae; experiment: growth AUC relative to DMSO control (median of replicates) (fraction); higher = more growth (less inhibition), active = hit call of the paper; conditions: 20 µM; 24 h
Measurement Label: growth AUC

Read the entry CN=C=S and write its reported growth AUC. 1.01 (inactive)

Read the entry CC(=O)O.CC(=O)O.CC(=O)O.NC(N)=NCCCCCCCCNCCCCCCCCN=C(N)N and write its reported growth AUC. 0.639 (active)

Read the entry CCNP(=S)(OC)O/C(C)=C/C(=O)OC(C)C (stereo not drawn) and write its reported growth AUC. 0.966 (inactive)

New cases:
Read the entry C[N+]1(C)CCCCC1.[Cl-] and write its reported growth AUC. 1.02 (inactive)

Read the entry CN(C)c1nc(=O)n(C2CCCCC2)c(=O)n1C and write its reported growth AUC. 1.03 (inactive)

Read the entry Nc1ccc(Cl)cc1Cl and write its reported growth AUC. 1 (inactive)

* * *

test system: Fusobacterium nucleatum subsp. animalis; test: growth AUC relative to DMSO control (median of replicates) (fraction); higher = more growth (less inhibition), active = hit call of the paper; conditions: 20 µM; 24 h
Assign class by growth AUC: not lower than 1 means 1; lower than 1 means -1.

Check this molecule for growth AUC at or above 1: COP(=O)(OC)Oc1ccc(S(C)=O)c(C)c1 (configuration not stated) -1

Check this molecule for growth AUC at or above 1: CCCSP(=S)(OCC)Oc1ccc(Cl)cc1Cl (configuration not stated) 1

Check this molecule for growth AUC at or above 1: COP(=O)(OC)Oc1ccc([N+](=O)[O-])cc1 1

Check this molecule for growth AUC at or above 1: CNC(=O)Oc1cccc2c1OC(C)(C)C2=O 1

Check this molecule for growth AUC at or above 1: COC(=O)NCc1cc(/C(C)=N\OCc2cccc(C)n2)ccc1Cl -1

Check this molecule for growth AUC at or above 1: CC(=NCc1ccc(Cl)nc1)NC#N 1

* * *

system: Parabacteroides distasonis; test: growth AUC relative to DMSO control (median of replicates) (fraction); higher = more growth (less inhibition), active = hit call of the paper; conditions: 20 µM; 24 h
Measurement Label: growth AUC
In your answer, state the number alone without any accompanying words.

Identify measured growth AUC obtained with Parabacteroides distasonis for COc1cc(Cl)c(OC)cc1Cl . 1.02

Identify measured growth AUC obtained with Parabacteroides distasonis for CCN(C(=O)n1nnn(-c2ccccc2Cl)c1=O)C1CCCCC1 . 0.682

Identify measured growth AUC obtained with Parabacteroides distasonis for Nc1c(Cl)c(F)nc(OCC(=O)O)c1Cl . 0.972

Identify measured growth AUC obtained with Parabacteroides distasonis for CCN(CC)N=O . 1

Identify measured growth AUC obtained with Parabacteroides distasonis for CCOP(=O)(NC(C)C)Oc1ccc(SC)c(C)c1 (configuration not stated) . 0.77

* * *

test system: Lactobacillus gasseri; test: growth AUC relative to DMSO control (median of replicates) (fraction); higher = more growth (less inhibition), active = hit call of the paper; details: 20 µM; 24 h
Parameter: growth AUC. Scope: all listed entries.
In your answer, state the number alone without any accompanying words.

Identify measured growth AUC obtained with Lactobacillus gasseri for COC(=O)NS(=O)(=O)c1ccc(N)cc1 . 0.848

New cases:
Identify measured growth AUC obtained with Lactobacillus gasseri for O=[N+]([O-])c1ccc(O)c([N+](=O)[O-])c1 . 1.06

Identify measured growth AUC obtained with Lactobacillus gasseri for COP(=O)(OC)SCn1c(=O)oc2cc(Cl)cnc21 . 1.08

Identify measured growth AUC obtained with Lactobacillus gasseri for COP(=O)(OC)OC(Br)C(Cl)(Cl)Br (stereo not drawn) . 1.02

* * *

Parameter: growth AUC. Scope: all listed entries.
tested on: Bacteroides thetaiotaomicron; experiment: growth AUC relative to DMSO control (median of replicates) (fraction); higher = more growth (less inhibition), active = hit call of the paper; settings: 20 µM; 24 h
In your answer, state the number alone without any accompanying words.

The following molecules have reported results that may help.
Read the entry CNC(=O)O/N=C/C(C)(C)S(C)(=O)=O and write its reported growth AUC. 1

Read the entry CCOP(=S)(OCC)SCSCC and write its reported growth AUC. 0.997

Read the entry c1ccc(-c2ccccc2)cc1 and write its reported growth AUC. 0.969

Read the entry O=C(NC(=O)c1c(F)cccc1F)Nc1ccc(Oc2ccc(C(F)(F)F)cc2Cl)cc1F and write its reported growth AUC. 1

Read the entry O=C(O)COc1cc(Cl)c(Cl)cc1Cl and write its reported growth AUC. 0.985

Now for the molecule whose growth AUC we want.
Read the entry O=[N+]([O-])c1ccc(Oc2ccc(C(F)(F)F)cc2[N+](=O)[O-])cc1 and write its reported growth AUC. 0.92

Where do the numbers come from? From the supplement of paper PMC12669032.
